Reference source: patent US20250332173A1

tested on: K562 (human chronic myelogenous leukemia) cells; assay: Cell Titer Glo 2.0 cell viability assay; assay type: cell-based; details: Homo sapiens, K562, 72 h, K562 cells, 72 hours, Cell Titer Glo 2.0; read-out: K562 GI50
OUTCOME MEASURE: GI50

Please fill in: GI50 reported for Cn1cc2cc(-c3ccc4c(=O)n(C56CCC(N)(CC5)C6)ccc4n3)c(O)cc2n1 = < 100 nM

Please fill in: GI50 reported for C[C@H]1C[C@@H](n2ccc3nc(-c4cc(F)c5nn(C)cc5c4)ccc3c2=O)CCN1 = 100 to 1000 nM

Please fill in: GI50 reported for CCOC(=O)c1cc(-c2ccc3c(=O)n(C4CCNCC4)ccc3c2)nn2cc(C)nc12 = 1000 to 10000 nM

Please fill in: GI50 reported for Cc1cn2nc(-c3ccc4c(=O)n(C5CCNC(C)(C)C5)ncc4c3)cc(C)c2n1 (centres unmarked) = 1000 to 10000 nM

Please fill in: GI50 reported for Cc1cn2nc(-c3ccc4c(=O)n([C@H]5CCNC6(CC6)C5)ccc4n3)cc(C)c2n1 = 100 to 1000 nM

Please fill in: GI50 reported for Cc1c(O)c(-c2ncc3c(=O)n([C@@H]4C[C@H]5C[C@@H]4CN5)ccc3n2)cc2cn(C)nc12 (stereo in doubt) = 100 to 1000 nM

Please fill in: GI50 reported for Cc1cc(-c2cc(F)c3c(=O)n(C4CCNC5(CC5)C4)ccc3c2)cc2c1nc(C)n2C (centres unmarked) = 1000 to 10000 nM

Please fill in: GI50 reported for O=C1c2ccc(-c3cn[nH]c3)cc2CCN1C1CCNCC1 = > 10000 nM

---

tested on: MYB mRNA; test: RT-qPCR splicing assay, MYB canonical junction (CJ) and alternative junction (AJ) mRNA; format: cell-based, human; conditions: Homo sapiens; increase in MYB alternative junction (AJ) mRNA, RT-qPCR; read-out: MYB AJ AC50
Below, each entry is listed with its recorded AC50.

Please fill in: AC50 reported for Cc1cn2nc(-c3ccc4c(c3)CCN(C3CCN(C)CC3)C4=O)cc(C)c2n1 = 1 to 10 µM

Please fill in: AC50 reported for Cc1c(O)c(-c2ccc3c(=O)n([C@H]4CCNC4)ccc3n2)cc2cn(C)nc12 = 0.1 to 1 µM

Please fill in: AC50 reported for Cc1cn2cc(-c3ccc4c(=O)n(C5CCNCC5)cnc4c3)c(C)cc2n1 = > 10 µM

Please fill in: AC50 reported for Cc1cn2nc(-c3ccc4c(=O)n([C@H]5CCNC6(CCC6)C5)ccc4n3)cc(C)c2n1 = 0.1 to 1 µM

Please fill in: AC50 reported for Cc1nc2c(F)cc(-c3ccc4c(=O)n(C5CCN(C)CC5)cnc4c3)cc2s1 = 1 to 10 µM

Please fill in: AC50 reported for Cc1cn2cc(-c3ccc4c(=O)n(C5CCNC5)ccc4n3)cc(F)c2n1 (stereo not shown) = 0.1 to 1 µM

Further cases:
Please fill in: AC50 reported for Cc1c(O)c(-c2ncc3c(=O)n(N4CCNCC4)ccc3n2)cc2cn(C)nc12 = 0.1 to 1 µM

Please fill in: AC50 reported for Cc1cn2nc(-c3ccc4c(=O)n(C5CCNCC5)cc(C)c4c3)cc(C)c2n1 = < 0.1 µM

Please fill in: AC50 reported for Cc1cn2cc(-c3cc(F)c4c(=O)n(C5CCN(C)CC5)cnc4c3)cc(F)c2n1 = 0.1 to 1 µM

Please fill in: AC50 reported for Cc1cn2cc(-n3ccc4cc(N5C[C@@H](C)N[C@@H](C)C5)ccc4c3=O)nc(C)c2n1 = > 10 µM

Please fill in: AC50 reported for Cc1cn2nc(-n3cnc4ccc(N5CCN(C)CC5)cc4c3=O)cc(C)c2n1 = 1 to 10 µM

Please fill in: AC50 reported for Cn1cc2ccc(-c3ccc4c(=O)n(C5CCNCC5)ncc4c3)cc2n1 = > 10 µM

Please fill in: AC50 reported for Cc1c(O)c(-c2ccc3c(=O)n([C@H]4CC[C@@H](N(C)C)CC4)ccc3n2)cc2cn(C)nc12 = 0.1 to 1 µM

---

Below, each entry is listed with its recorded IC50.
tested on: MYB; assay: HiBiT protein abundance assay, MYB HiBiT K562 cell line; format: cell-based, human; settings: HiBiT K562 cell line, 24 hours, top dose 10 μM; read-out: Effect on protein abundance, MYB (IC50 category)

Please fill in: IC50 reported for Cc1cn2cc(-c3ccc4c(c3)CCN(C3CCNCC3)C4=O)cc(F)c2n1 = 0.1 to 1 µM

Please fill in: IC50 reported for Cc1cc(-c2ccc3c(=O)n(C4CCN(C)CC4)cnc3c2)cc2cn(C)nc12 = 1 to 10 µM

Please fill in: IC50 reported for Cc1cn2cc(-c3cc(F)c4c(=O)n([C@H]5CCNC[C@@H]5F)cnc4c3)cc(F)c2n1 (relative stereo) = 0.1 to 1 µM

Further cases:
Please fill in: IC50 reported for Cc1cn2c(n1)CCC(c1cc(F)c3c(=O)n(C4CCNCC4)cnc3c1)C2 (centres unmarked) = > 10 µM

Please fill in: IC50 reported for Cn1cc2c(=O)n(-c3ccc4c(=O)n(C5CCNCC5)ccc4c3)ccc2n1 = > 10 µM

Please fill in: IC50 reported for Cc1cc(-c2cc3ccn(C4CCN(C5CC5)CC4)c(=O)c3cn2)cc2cn(C)nc12 = 1 to 10 µM

Please fill in: IC50 reported for Cc1cn2nc(-c3cc(C)c4c(=O)n(C5CCNC6(CC6)C5)ncc4c3)cc(C)c2n1 (centres unmarked) = < 0.1 µM

Please fill in: IC50 reported for Cc1cn2cc(-c3ccc4c(=O)n([C@H]5CCN[C@H](C)C5)cnc4c3)cc(F)c2n1 = 0.1 to 1 µM

---

Below, each entry is listed with its recorded AC50.
tested on: HTT mRNA; experiment: RT-qPCR splicing assay, HTT canonical junction (CJ) and alternative junction (AJ) mRNA; format: cell-based, human; conditions: Homo sapiens, increase in HTT alternative junction (AJ) mRNA, RT-qPCR; read-out: HTT AJ AC50

Please fill in: AC50 reported for Cc1cn2nc(-c3cc(F)c4c(=O)n(C5CCNC6(CC6)C5)ncc4c3)cc(C)c2n1 (centres unmarked) [Compound 312] = < 100 nM

Please fill in: AC50 reported for Cc1c(O)c(-c2ncc3c(=O)n([C@@H]4CCNC(C)(C)C4)ccc3n2)cc2cn(C)nc12 [Compound 1435] = 1000 to 10000 nM

Please fill in: AC50 reported for Cn1cc2cc(-n3cnc4cc(N5CCNCC5)ccc4c3=O)ccc2n1 [Compound 153] = > 10000 nM

Further cases:
Please fill in: AC50 reported for Cc1cn2c(n1)CCC(c1ccc3c(=O)n(C4CCNCC4)ccc3c1)C2 (centres unmarked) [Compound 453] = > 10000 nM

Please fill in: AC50 reported for Cn1cc2cc(-n3cnc4ccc(N5CCNCC5)cc4c3=O)cc(F)c2n1 [Compound 2196] = > 10000 nM

---

tested on: K562 (human chronic myelogenous leukemia) cells; test: Cell Titer Glo 2.0 cell viability assay; assay type: cell-based; conditions: Homo sapiens, K562, 72 h, K562 cells, 72 hours, Cell Titer Glo 2.0; read-out: K562 GI50
OUTCOME MEASURE: GI50

Use these answered entries as a reference point.
# GI50 measured on K562 (human chronic myelogenous leukemia) cells for item Cn1cc2cc(-n3cnc4cc(C5CCNCC5)ccc4c3=O)ccc2n1 [Compound 172] = 1000 to 10000 nM

# GI50 measured on K562 (human chronic myelogenous leukemia) cells for item Cc1cn2nc(-c3cc(F)c4c(=O)n(C5CCNCC5)cnc4c3)cc(C)c2n1 [Compound 243] = < 100 nM

# GI50 measured on K562 (human chronic myelogenous leukemia) cells for item Cc1cn2nc(-c3ccn4c(=O)c(C5CCNCC5)ccc4c3)cc(C)c2n1 [Compound 1181] = < 100 nM

# GI50 measured on K562 (human chronic myelogenous leukemia) cells for item Cn1cc2cc(-c3ncc4c(=O)n(C5CCNCC5)ccc4n3)c(O)c(F)c2n1 [Compound 1123] = < 100 nM

# GI50 measured on K562 (human chronic myelogenous leukemia) cells for item Cc1c(O)c(-c2ncc3c(=O)n([C@@H]4CCNC(C)(C)C4)ccc3n2)cc2cn(C)nc12 [Compound 1435] = 100 to 1000 nM

# GI50 measured on K562 (human chronic myelogenous leukemia) cells for item COC(=O)Cc1cc(-c2ccc3c(=O)n(C4CCNCC4)ccc3c2)nn2cc(C)nc12 [Compound 527] = 1000 to 10000 nM

# GI50 measured on K562 (human chronic myelogenous leukemia) cells for item Cc1cn2nc(-c3cc4ncn(C5CCNCC5)c(=O)c4cc3F)cc(C)c2n1 [Compound 585] = 1000 to 10000 nM

# GI50 measured on K562 (human chronic myelogenous leukemia) cells for item Cc1cc(-c2ccc3c(=O)n(C4CCNCC4)cnc3c2)cc2cn(C)nc12 [Compound 174] = 100 to 1000 nM

Further cases:
# GI50 measured on K562 (human chronic myelogenous leukemia) cells for item Cc1cn2nc(-c3ccc4c(=O)n([C@H]5CCN(C)[C@H](C)C5)ncc4c3)cc(C)c2n1 [Compound 278] = 100 to 1000 nM

# GI50 measured on K562 (human chronic myelogenous leukemia) cells for item Cc1nc2c(F)cc(-c3ccc4c(=O)n(C5CCNCC5)cnc4c3)cc2s1 [Compound 285] = 100 to 1000 nM

# GI50 measured on K562 (human chronic myelogenous leukemia) cells for item Cc1cn2cc(-c3ccc4c(c3)CCN(C3CCNCC3)C4=O)cc(C(F)(F)F)c2n1 [Compound 252] = 1000 to 10000 nM
